For each of the compounds below, state its inhibition.
TESTED_ON: Nuclear receptor coactivator 3 (Homo sapiens) (UniProt Q9Y6Q9)
Sequence (Q9Y6Q9 whole entry, looked up): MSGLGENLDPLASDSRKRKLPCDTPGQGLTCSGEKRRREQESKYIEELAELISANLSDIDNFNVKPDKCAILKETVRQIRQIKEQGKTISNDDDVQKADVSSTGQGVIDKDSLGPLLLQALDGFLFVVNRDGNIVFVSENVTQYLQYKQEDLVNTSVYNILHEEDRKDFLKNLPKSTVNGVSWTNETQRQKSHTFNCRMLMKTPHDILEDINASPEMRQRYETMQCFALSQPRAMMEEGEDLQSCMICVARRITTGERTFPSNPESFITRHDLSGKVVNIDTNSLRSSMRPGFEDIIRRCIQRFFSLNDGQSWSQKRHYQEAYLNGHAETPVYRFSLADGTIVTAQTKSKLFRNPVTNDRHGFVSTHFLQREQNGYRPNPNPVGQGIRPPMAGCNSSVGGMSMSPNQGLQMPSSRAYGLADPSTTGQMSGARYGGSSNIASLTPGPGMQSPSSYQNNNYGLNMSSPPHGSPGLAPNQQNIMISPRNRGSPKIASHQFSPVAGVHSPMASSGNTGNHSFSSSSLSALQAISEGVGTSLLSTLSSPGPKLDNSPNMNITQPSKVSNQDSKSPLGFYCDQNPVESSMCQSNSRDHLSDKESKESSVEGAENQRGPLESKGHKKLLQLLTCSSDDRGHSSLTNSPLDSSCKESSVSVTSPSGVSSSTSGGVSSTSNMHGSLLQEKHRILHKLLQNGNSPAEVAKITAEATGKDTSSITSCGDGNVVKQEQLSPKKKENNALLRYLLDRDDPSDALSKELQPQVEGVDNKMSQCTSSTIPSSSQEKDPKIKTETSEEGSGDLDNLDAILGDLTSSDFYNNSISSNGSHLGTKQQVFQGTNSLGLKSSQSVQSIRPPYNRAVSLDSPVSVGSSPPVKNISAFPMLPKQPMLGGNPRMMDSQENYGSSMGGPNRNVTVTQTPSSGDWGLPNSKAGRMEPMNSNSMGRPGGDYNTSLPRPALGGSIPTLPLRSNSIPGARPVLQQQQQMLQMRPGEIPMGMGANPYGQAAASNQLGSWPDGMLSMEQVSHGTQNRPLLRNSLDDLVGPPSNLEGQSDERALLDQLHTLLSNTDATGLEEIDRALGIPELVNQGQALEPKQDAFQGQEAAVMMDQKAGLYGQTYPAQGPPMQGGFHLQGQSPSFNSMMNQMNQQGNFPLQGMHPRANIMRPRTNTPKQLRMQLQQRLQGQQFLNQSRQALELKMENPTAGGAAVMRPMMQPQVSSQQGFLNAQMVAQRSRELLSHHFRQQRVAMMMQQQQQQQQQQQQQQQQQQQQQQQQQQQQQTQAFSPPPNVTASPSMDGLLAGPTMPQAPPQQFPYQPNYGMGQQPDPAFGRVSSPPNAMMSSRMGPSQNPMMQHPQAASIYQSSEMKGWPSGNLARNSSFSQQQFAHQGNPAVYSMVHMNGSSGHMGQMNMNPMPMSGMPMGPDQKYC
PROCEDURE_TEXT: SRC3 coactivator transcriptional activity inhibitors, confirmation, cell-based, luminescence, quadruplicate (AID 588792);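 note: 0% = DMSO treated cells and 100% = gossypol at 36 µM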
ASSAY_SETUP: HEK293 GAL4-SRC3 luciferase reporter, at 3.6 µM, stronger effect = higher value
Answer with a number only, understood to be in %.

[Q] Name the reported inhibition value associated with the compound `CCN1C/C(=C/c2ccc(N3CCOCC3)cc2)C(=O)/C(=C/c2ccc(N3CCOCC3)cc2)C1`
[A] 40.8

[Q] Name the reported inhibition value associated with the compound Cc1ccc(C2CC(C(F)(F)F)n3nc(C(=O)NCc4c(C)nn(C)c4C)c(Cl)c3N2)cc1 (stereo not given)
[A] 7.71

[Q] Name the reported inhibition value associated with the compound `COc1ccc(C(=O)N/N=C/c2cc(Br)ccc2O)cc1OC`
[A] 26.2

[Q] Name the reported inhibition value associated with the compound `CS(=O)(=O)Nc1ccc(-c2cnc3cccnn23)cc1`
[A] 67.9

[Q] Name the reported inhibition value associated with the compound `NCCCn1c(C(=O)c2cc(Cl)c(N)c(Cl)c2)c2ccc([N+](=O)[O-])cc2[n+]1[O-]`
[A] 26.8

[Q] Name the reported inhibition value associated with the compound `CCCc1ccc(-c2ccc(/C=C/C(=O)O)cc2)nc1`
[A] 76

[Q] Name the reported inhibition value associated with the compound COCC(C)n1c(C)cc(C(=O)COC(=O)c2cc(=O)[nH]c3ccccc23)c1C (stereo not given)
[A] 1.93

[Q] Name the reported inhibition value associated with the compound `Cc1ccc(C(=O)C[n+]2cc(-c3ccccc3)n3c2CCCCC3)cc1`
[A] 6.68

[Q] Name the reported inhibition value associated with the compound `Cn1c(=N)n(CC(=O)c2ccc(Cl)c(Cl)c2)c2ccccc21`
[A] -33.3

[Q] Name the reported inhibition value associated with the compound `Clc1ccc(C[n+]2cc(-c3ccccc3)n3c2CCCCC3)c(Cl)c1`
[A] 22.4
